- procedure-details: folding enthalpy; higher = less favourable; fluorescence melt of hairpins on a sequencing array, two-state fit
- run-parameters: sodium 0.088 M
metric-name: folding enthalpy (kcal/mol)

>>> reported_result("GATCTGAGTACAGATC ((((((....))))))")
-30.9
>>> reported_result("GTTGGTCGAAAGACTAAC (((.(((....))).)))")
-25.9
>>> reported_result("GGCCTCGAAAGAGCGGCC ((((((....)))..)))")
-29.1
>>> reported_result("GATCTGAGTGCAGATC ((((((....))))))")
-31.1
>>> reported_result("GAGGAGCCGAAAGGCCTC (((..(((....))))))")
-11.5
>>> reported_result("GCTGTGCGAAAGCAGAGC (((.(((....))).)))")
-56
>>> reported_result("GAATACACGAAAGTGTTC (((..(((....))))))")
-13.4
>>> reported_result("GGTAAAGGAAACTTTGCC ((.((((....)))).))")
-28.6
>>> reported_result("GGAGGCGAAAGCCCCTCC ((((((....)))..)))")
-12.6
>>> reported_result("GGTGCCCGAAAGGGAACC (((.(((....))).)))")
-35.8
>>> reported_result("GGCCTGGGAAACCAAGCC (((.(((....))).)))")
-30.1
>>> reported_result("GCTACCGCGAAAGCGAGC (((..(((....))))))")
-11.5
>>> reported_result("GCCGAGCGAAAGCCGGGC (((..((....))..)))")
-13.3
>>> reported_result("GATCGACAGATCGATC ((((((....))))))")
-16.1
>>> reported_result("GCAGTGCGAAAGCATGC (((.(((....))))))")
-20.4
>>> reported_result("GCGGATGGAAACATCTGC ((.((((....)))).))")
-47.5
>>> reported_result("GGATTAGGAAACTAGTCC (((.(((....))).)))")
-25.2
>>> reported_result("GAGCCAGAAATGGCTC ((((((....))))))")
-32.4
>>> reported_result("GTGCTCGAAAGAGAGCAC ((((((....)))..)))")
-34.2
>>> reported_result("GACGGCGGAAACGCTGTC (((.(((....))).)))")
-37.5
>>> reported_result("GTAAATCCGAAAGGATAC (((..(((....))))))")
-11
>>> reported_result("GTATGCGGAAACGCATAC (((((((....)))))))")
-33.5
>>> reported_result("GATAGCGAAAGCTTCATC ((((((....)))..)))")
-12
>>> reported_result("GATCCGACTCGGATC ((((((...))))))")
-38.9
>>> reported_result("GACAGCGGAAACGCCGTC (((.(((....))).)))")
-18.6
